Attribution: PubChem BioAssay (NCI)

System: SNB-19 CNS
Assay: NCI-60 one-dose screen, 48 h (100 = growth as untreated, 0 = no growth, -100 = all killed)
Conditions: 10 µM
About 83,000 compounds went through this panel and 20% of them were active in at least one assay; those are over-represented in the sample as a whole. Calls of active or inactive are those of the source. The calls were made as follows: active = growth percent below 10; inactive = the rest.
QUANTITY_KIND: growth

Some compounds with recorded growth:
COMPOUND	SYSTEM_NAME	growth
O=C(NCO)c1ccccc1	SNB-19 CNS	107% (inactive)
CCCCOC(=O)c1ccc(C(C)C)cc1	SNB-19 CNS	105% (inactive)
Cc1cc(=O)cc(C)n1-c1ccccc1	SNB-19 CNS	99.8% (inactive)
CC1(C)OC(=O)C(c2ccsc2)C(=O)O1	SNB-19 CNS	108% (inactive)
CCCCC(CC)COC(C)=O (stereo not given)	SNB-19 CNS	106% (inactive)
CC(=O)C1CCCCC1	SNB-19 CNS	100% (inactive)
c1ccc(Sc2ccccc2)cc1	SNB-19 CNS	98.2% (inactive)
NCCCN	SNB-19 CNS	104% (inactive)

Please turn your attention to the following entry.
**Q:** Requested field: growth. Item: `C=CCNC(=O)c1ccc(OC)cc1`
**A:** 92.1% (inactive)
